system.name: RNA-directed RNA polymerase (Hepacivirus hominis, UniProt O39930)
Sequence (O39930 whole entry): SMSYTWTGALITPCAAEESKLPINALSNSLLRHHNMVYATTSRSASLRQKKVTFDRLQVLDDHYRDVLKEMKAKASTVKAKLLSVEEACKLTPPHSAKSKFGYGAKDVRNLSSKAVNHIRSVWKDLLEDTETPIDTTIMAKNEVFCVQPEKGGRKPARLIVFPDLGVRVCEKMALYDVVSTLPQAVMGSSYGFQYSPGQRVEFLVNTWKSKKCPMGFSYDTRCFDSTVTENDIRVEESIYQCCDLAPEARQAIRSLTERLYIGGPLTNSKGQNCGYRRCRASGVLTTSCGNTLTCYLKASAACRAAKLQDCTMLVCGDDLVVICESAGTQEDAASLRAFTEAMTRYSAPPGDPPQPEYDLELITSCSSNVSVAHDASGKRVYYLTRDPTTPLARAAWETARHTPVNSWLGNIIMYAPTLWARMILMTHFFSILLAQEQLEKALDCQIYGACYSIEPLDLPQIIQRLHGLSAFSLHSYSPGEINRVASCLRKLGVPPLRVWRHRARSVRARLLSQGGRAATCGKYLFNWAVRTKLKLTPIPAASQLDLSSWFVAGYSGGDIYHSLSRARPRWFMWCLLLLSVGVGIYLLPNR
assay.comment: Effective concentration against RNA dependent RNA polymerase Nonstructural protein 5B of genotype 1b Hepatitis C virus
parameter: EC50 (nM)

| molecule | result.units | EC50 |
| --- | --- | --- |
| O=c1c(C2=Nc3ccccc3S(=O)(=O)N2)c(O)c2ccccc2n1NCC1CCC1 | nM | 103 |

A. CC(C)CNn1c(=O)c(C2=NS(=O)(=O)c3ccccc3N2)c(O)c2ccccc21
B. O=c1c(C2=Nc3ccccc3S(=O)(=O)N2)c(O)c2ccccc2n1NCc1ccccc1
# input Please indicate which entry, A or B , has the lower recorded EC50 value. Select an item and report its label.
# output A

a. O=c1c(C2=NS(=O)(=O)c3ccccc3N2)c(O)c2ccccc2n1NCC1CC1
b. CCCCNn1c(=O)c(C2=Nc3ccccc3S(=O)(=O)N2)c(O)c2ccccc21
# input Please indicate which entry, a or b , has the lower recorded EC50 value. Select an item and report its label.
# output a
(a: 1050 nM, b: 3480 nM)
